molecular target: human LILRB2 expressed on cells (human, UniProt Q8N423 22-597); assay: cell-based or functional assay
Sequence (Q8N423 other isoform, or with tags, fused parts or gaps limits assumed): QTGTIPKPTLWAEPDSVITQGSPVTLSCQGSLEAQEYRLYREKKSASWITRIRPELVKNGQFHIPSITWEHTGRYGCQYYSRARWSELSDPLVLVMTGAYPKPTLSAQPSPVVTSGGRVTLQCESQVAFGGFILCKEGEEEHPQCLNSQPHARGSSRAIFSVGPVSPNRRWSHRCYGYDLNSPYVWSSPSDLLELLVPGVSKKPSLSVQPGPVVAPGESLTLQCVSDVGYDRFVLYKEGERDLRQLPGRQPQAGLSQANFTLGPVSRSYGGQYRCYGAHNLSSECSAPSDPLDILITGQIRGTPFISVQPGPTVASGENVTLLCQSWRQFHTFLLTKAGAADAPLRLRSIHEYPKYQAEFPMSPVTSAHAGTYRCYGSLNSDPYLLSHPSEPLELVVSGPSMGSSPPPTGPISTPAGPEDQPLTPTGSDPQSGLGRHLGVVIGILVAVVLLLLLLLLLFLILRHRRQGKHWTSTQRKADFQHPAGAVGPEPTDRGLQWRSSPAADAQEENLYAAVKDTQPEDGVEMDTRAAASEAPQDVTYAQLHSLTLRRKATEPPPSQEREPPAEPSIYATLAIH
Measure: IL-6 production (fold over LPS alone)
Write down the numeric answer in fold over LPS alone and omit the unit.

# lookup: IL-6 production (fold over LPS alone) of J-04 (antibody, human IgG4 S228P, kappa, V domains shown, Human IgG4 chimera of murine origin) VH: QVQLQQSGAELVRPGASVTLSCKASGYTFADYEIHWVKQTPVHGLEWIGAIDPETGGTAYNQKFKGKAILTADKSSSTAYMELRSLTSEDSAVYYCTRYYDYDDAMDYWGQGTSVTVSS VL: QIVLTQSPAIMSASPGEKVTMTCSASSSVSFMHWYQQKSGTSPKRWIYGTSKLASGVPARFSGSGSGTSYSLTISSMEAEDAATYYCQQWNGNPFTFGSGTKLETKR 1.36

What do we get for J-11 (antibody, human IgG4 S228P, kappa, V domains shown, Human IgG4 chimera of murine origin; also called J-11.h) VH: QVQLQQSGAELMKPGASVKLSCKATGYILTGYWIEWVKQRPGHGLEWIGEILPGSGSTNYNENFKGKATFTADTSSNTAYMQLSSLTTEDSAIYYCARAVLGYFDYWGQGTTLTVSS VL: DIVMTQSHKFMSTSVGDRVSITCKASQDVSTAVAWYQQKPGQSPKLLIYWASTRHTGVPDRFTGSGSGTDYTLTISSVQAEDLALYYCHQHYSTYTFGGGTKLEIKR ? 3.06

What do we get for J-19 (antibody, human IgG4 S228P, kappa, V domains shown, Human IgG4 chimera from a rat immunization; also called J-19.h) VH: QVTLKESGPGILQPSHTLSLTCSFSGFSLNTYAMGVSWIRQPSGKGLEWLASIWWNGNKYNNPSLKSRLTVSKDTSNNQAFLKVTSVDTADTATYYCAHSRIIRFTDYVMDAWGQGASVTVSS VL: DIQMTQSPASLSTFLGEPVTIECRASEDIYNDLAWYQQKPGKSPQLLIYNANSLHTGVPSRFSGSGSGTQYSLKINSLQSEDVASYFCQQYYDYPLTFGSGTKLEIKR ? 2.72
